Molecular target: T1, human CNTN4-rabbit Fc (human; rabbit, UniProt Q8IWV2 19-1000, limits assumed)
T1 construct: not shown: rabbit Fc
T1 sequence (looked up): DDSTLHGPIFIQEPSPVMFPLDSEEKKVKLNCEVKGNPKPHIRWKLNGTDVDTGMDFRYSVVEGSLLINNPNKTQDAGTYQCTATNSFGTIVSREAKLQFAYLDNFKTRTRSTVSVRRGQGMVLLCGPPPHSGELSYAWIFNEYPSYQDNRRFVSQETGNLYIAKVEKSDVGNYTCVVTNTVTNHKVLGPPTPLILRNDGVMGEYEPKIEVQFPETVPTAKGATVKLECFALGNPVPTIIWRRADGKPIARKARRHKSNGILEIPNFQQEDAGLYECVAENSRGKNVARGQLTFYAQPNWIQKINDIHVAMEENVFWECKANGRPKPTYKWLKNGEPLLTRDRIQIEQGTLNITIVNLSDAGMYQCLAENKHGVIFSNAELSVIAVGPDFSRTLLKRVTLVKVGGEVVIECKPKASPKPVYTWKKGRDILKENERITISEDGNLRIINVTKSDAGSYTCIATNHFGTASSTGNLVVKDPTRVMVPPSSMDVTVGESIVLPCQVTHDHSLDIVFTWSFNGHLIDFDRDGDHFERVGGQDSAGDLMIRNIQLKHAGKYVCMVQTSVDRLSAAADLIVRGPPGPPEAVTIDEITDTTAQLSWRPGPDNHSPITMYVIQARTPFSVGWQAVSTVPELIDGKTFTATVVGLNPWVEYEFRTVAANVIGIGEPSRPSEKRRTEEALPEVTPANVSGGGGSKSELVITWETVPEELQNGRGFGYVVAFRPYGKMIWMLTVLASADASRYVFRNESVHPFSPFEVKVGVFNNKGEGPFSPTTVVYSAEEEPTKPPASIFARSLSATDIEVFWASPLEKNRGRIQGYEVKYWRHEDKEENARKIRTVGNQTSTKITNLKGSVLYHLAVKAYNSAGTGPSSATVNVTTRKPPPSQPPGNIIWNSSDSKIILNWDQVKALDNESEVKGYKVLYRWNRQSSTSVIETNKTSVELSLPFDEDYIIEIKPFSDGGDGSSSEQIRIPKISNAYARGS
Assay: ELISA, plate coated with antigen-rabbit Fc, anti-human IgG Fc-HRP
measurement label: pEC50
In simple prose, pEC50 is minus the logarithm base ten of a concentration in moles per litre.

As a guide, the following entries are already answered.
binder | test value
anti-CNTN4 IgG A13SF20 (antibody, V domains shown, human IgG4 (S228P)) VH: AVTLDESGGGLHTPGGALSLVCKASGFTFSSYGMAWVRQAPGKGLEWVAGITSSGSSAGYGPAVKGRATISRDNGQSTVRLQLNNLRAEDTATYYCAKDGYIYSGADSDSIDAWGHGTEVIVSS VL: ALTQPSSVSANLGGTVEITCSGGSGSYGWYQQKAPGSAPVTLIYNSDKRPSDIPSRFSGSKSGSTGTLTITGVQAEDEAVYFCGGYDSSAIFGAGTTLTVL | 11.00
anti-CNTN4 IgG A35SF8 (antibody, V domains shown, human IgG4 (S228P)) VH: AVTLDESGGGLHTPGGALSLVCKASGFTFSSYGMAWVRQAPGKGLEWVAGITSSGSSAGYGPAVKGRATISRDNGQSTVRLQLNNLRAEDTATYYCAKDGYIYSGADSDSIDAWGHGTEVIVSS VL: ALTQPSSVSANLGGTVKITCSGGGGSYGWFQQKSPGSAPVTLIYNNNNRPSDIPSRFSGSKSGSTATLTITGVQAEDEAVYFCGGYDDSTYVGMFGAGTTLTVL | 11.00

Field: next binder
Give a short answer stating reported pEC50 for anti-CNTN4 IgG A35SF75 (antibody, V domains shown, human IgG4 (S228P)) VH: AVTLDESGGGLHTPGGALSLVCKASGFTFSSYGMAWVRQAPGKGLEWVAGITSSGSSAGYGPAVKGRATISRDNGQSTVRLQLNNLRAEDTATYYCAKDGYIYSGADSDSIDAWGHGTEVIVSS VL: ALTQPSSVSANPGVTVKITCSGGGGSYGWYQQKAPGSAPVTLIYNNTNRPSDIPSRFSGSRSGSTNTLTITGVQAEDEAVYFCGGYDSNTDYVGFGAGTTLTVL .
9.68
